Kindly state pest or weed control at 125 g/ha for each of the entries shown.
test system: giant foxtail (Setaria faberii); experiment: Test C postemergence; format: in vivo; settings: Setaria faberi, post-emergence, 336 h; Postemergence, 125 g ai/ha, scale 0 to 100; read-out: Plant response rating, Foxtail, Giant
Numbers only, in %.

Some entries whose results are on file:
- mol: "FC(F)c1cccc(Oc2ncc(Cl)cn2)c1Oc1ncc(Cl)cn1"
  pest or weed control at 125 g/ha (%): 25
- mol: "Fc1cccc(Oc2ncc(Cl)cn2)c1Oc1ncc(C(F)(F)F)cn1"
  pest or weed control at 125 g/ha (%): 35
- mol: "N#Cc1cccc(Oc2ncc(Cl)cn2)c1Oc1ccc(Cl)cc1"
  pest or weed control at 125 g/ha (%): 10
- mol: "Clc1cnc(Oc2cccc(Cl)c2Oc2ncc(Br)cn2)nc1"
  pest or weed control at 125 g/ha (%): 10
- mol: "N#Cc1cccc(Oc2ncc(C(F)(F)F)cn2)c1Oc1ncc(Cl)cn1"
  pest or weed control at 125 g/ha (%): 20

Kindly review the next compound as well.
Q. State its pest or weed control at 125 g/ha for this compound: N#Cc1cccc(Oc2ncc(Cl)cn2)c1Oc1cnc(Cl)cn1
A. 20

Hey, just so you know, these numbers are from patent US20170190671A1.
